Measured values drawn from paper PMC12010006 for this set.

# Measurement Target: MRGPRX2 (Homo sapiens, UniProt Q96LB1)
# Sequence (Q96LB1 whole entry): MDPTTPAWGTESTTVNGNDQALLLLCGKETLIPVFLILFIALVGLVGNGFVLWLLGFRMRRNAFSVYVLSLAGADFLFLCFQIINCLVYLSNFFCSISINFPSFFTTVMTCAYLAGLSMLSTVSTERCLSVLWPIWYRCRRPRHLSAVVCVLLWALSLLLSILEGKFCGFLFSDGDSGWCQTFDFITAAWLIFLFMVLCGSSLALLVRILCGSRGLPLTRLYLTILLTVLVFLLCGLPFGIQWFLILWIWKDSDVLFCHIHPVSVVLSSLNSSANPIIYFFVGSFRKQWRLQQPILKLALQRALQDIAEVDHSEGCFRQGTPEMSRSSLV
# Experiment Description: β-arrestin assay (agonist mode), β-arrestin CHO cells recombinantly expressing MRGPRX2
# Assay type: cell-based
# Setup Conditions: normalized to CST-14 (EC80 5,000 nM)
# Experimental: Eurofins DiscoverX (Fremont, CA, USA) provided engineered Chinese hamster ovary (CHO) cells stably expressing β-arrestin-2 fused to a large β-galactosidase fragment (enzyme acceptor, EA). These CHO-K1-β-arrestin-2 cells were commercially available (93-0164). […] The assays were carried out as previously described.[22] […] Chemiluminescence was measured on a Mithras LB 940 plate reader (Berthold Technologies, Bad Wildbad, Germany). […]
Parameter: β-Arrestin assay % activation (%)

(1) CCc1c(C(C)C)[nH]c2nc3cc(F)ccc3n2c1=O
(2) Cc1cc(=O)n2c(nc3ccccc32)[nH]1
Exercise: Select one. Lower β-Arrestin assay % activation: 1 or 2 // return label of chosen record
Key: 1
(1: -3%, 2: 0%)

(I) Cc1cc(=O)n2c(n1)sc1ccccc12
(II) Cc1[nH]c2nc3ccccc3n2c(=O)c1C
(III) CCc1c(C(C)C)[nH]c2nc3ncc(F)cc3n2c1=O
Exercise: Please list these compounds in decreasing order of β-Arrestin assay % activation. As an answer, provide the labels arranged in the order called for.
Key: II, I, III
(II: 1%, I: -1%, III: -3%)

* * *

# Experiment Description: MTT cytotoxicity assay, 1321N1 astrocytoma cells
# Assay type: cell-based
# Setup Conditions: human, up to 10,000 nM, read-out: Cytotoxicity % effect
Parameter: cytotoxicity at 72 h, 10000 nM (%)
Please respond with the number in % and leave the unit unwritten.

Answered examples (2):
{"columns": ["Molecular String", "cytotoxicity at 72 h, 10000 nM (%)"],
 "data": [
  ["CCc1c(C(C)C)[nH]c2nc3cc(F)c(F)cc3n2c1=O", 41],
  ["CCc1c(C(C)C)[nH]c2nc3cc(C)c(C)cc3n2c1=O", 28]
]}

Below: the item to evaluate.
Exercise: Suppose we examine the compound CCc1c(C(C)C)[nH]c2nc3cc(F)ccc3n2c1=O ; what cytotoxicity at 72 h, 10000 nM value has been reported?
Key: 30

* * *

# Measurement Target: MRGPRX2 (Homo sapiens, UniProt Q96LB1)
# Experiment Description: Degranulation (β-hexosaminidase release), RBL-MRGPRX2 cells
# Assay type: cell-based
# Setup Conditions: versus PAMP-12 (0.1 µM)
Parameter: IC50 (nM)
Please respond with the number in nM and leave the unit unwritten.

Exercise: Suppose we examine the molecule CCc1c(C(C)C)[nH]c2nc3cc(F)c(F)cc3n2c1=O ; what IC50 value has been reported?
Key: 11.7

* * *

# Measurement Target: MRGPRX2 (Homo sapiens, UniProt Q96LB1)
# Experiment Description: β-arrestin recruitment assay (antagonist mode), β-arrestin-CHO cells recombinantly expressing MRGPRX2
# Format: cell-based
# Parameters: expressed in transfected cells
# Setup Conditions: without antagonist; read-out: EC50 of (R)-ZINC-3573, shift assay
Parameter: EC50 (nM)
Please respond with the number in nM and leave the unit unwritten.

Exercise: Suppose we examine the compound CN(C)[C@@H]1CCN(c2cc(-c3ccccc3)nc3ccnn23)C1 [(R)-ZINC-3573, reference compound] ; what EC50 value has been reported?
Key: 2020
